Cited source for all entries: patent US11787825B2

In this section we review reported pH 7 solubility values for a set of compounds.
settings: 1×PBS buffer (pH 7.4), 1.0% DMSO, 24-hour incubation at ambient temperature, maximum theoretical compound concentration 100 μM
Response body: numeric value in μM, unit text excluded.

These solved cases illustrate the format of a correct answer.
[
  {
    "compound": "CN(C)CCCC[C@H](N)C(=O)N(c1nn(CC(F)(F)F)c2c(-c3ccc(C#CC(C)(C)S(C)(=O)=O)nc3[C@H](Cc3cc(F)cc(F)c3)NC(=O)Cn3nc(C(F)(F)F)c4c3C(F)(F)[C@@H]3C[C@H]43)ccc(Cl)c12)S(C)(=O)=O [Compound 16]",
    "pH 7 solubility, μM": 20
  },
  {
    "compound": "CC(C)(C#Cc1ccc(-c2ccc(Cl)c3c(N(C(=O)CN(CC(=O)O)CC(=O)O)S(C)(=O)=O)nn(CC(F)(F)F)c23)c([C@H](Cc2cc(F)cc(F)c2)NC(=O)Cn2nc(C(F)(F)F)c3c2C(F)(F)[C@@H]2C[C@H]32)n1)S(C)(=O)=O [Compound 23]",
    "pH 7 solubility, μM": 22
  },
  {
    "compound": "CC(C)(C#Cc1ccc(-c2ccc(Cl)c3c(N(C(=O)[C@@H](N)CCCCN)S(C)(=O)=O)nn(CC(F)(F)F)c23)c([C@H](Cc2cc(F)cc(F)c2)NC(=O)Cn2nc(C(F)(F)F)c3c2C(F)(F)[C@@H]2C[C@H]32)n1)S(C)(=O)=O [Compound 11]",
    "pH 7 solubility, μM": 43
  },
  {
    "compound": "CC(C)[C@@H](C(=O)N(c1nn(CC(F)(F)F)c2c(-c3ccc(C#CC(C)(C)S(C)(=O)=O)nc3[C@H](Cc3cc(F)cc(F)c3)NC(=O)Cn3nc(C(F)(F)F)c4c3C(F)(F)[C@@H]3C[C@H]43)ccc(Cl)c12)S(C)(=O)=O)N(C)C [Compound 8]",
    "pH 7 solubility, μM": 1
  }
]

Item: CC(C)(CCN(CC(=O)O)C(=O)OCOP(=O)(O)O)C(=O)N(c1nn(CC(F)(F)F)c2c(-c3ccc(C#CC(C)(C)S(C)(=O)=O)nc3[C@H](Cc3cc(F)cc(F)c3)NC(=O)Cn3nc(C(F)(F)F)c4c3C(F)(F)[C@@H]3C[C@H]43)ccc(Cl)c12)S(C)(=O)=O [Compound 43] | pH 7 solubility: 100

Looking up CC(C)(C#Cc1ccc(-c2ccc(Cl)c3c(N(C(=O)CCCNC(=O)OCOP(=O)(O)O)S(C)(=O)=O)nn(CC(F)(F)F)c23)c([C@H](Cc2cc(F)cc(F)c2)NC(=O)Cn2nc(C(F)(F)F)c3c2C(F)(F)[C@@H]2C[C@H]32)n1)S(C)(=O)=O [Compound 33] , I see its pH 7 solubility listed as 75

Consider CC(C)[C@H](N)C(=O)OCCCCC(=O)N(c1nn(CC(F)(F)F)c2c(-c3ccc(C#CC(C)(C)S(C)(=O)=O)nc3[C@H](Cc3cc(F)cc(F)c3)NC(=O)Cn3nc(C(F)(F)F)c4c3C(F)(F)[C@@H]3C[C@H]43)ccc(Cl)c12)S(C)(=O)=O [Compound 14] . Its measured pH 7 solubility is 1

The reported value for CC(C)[C@H](N)C(=O)N(c1nn(CC(F)(F)F)c2c(-c3ccc(C#CC(C)(C)S(C)(=O)=O)nc3[C@H](Cc3cc(F)cc(F)c3)NC(=O)Cn3nc(C(F)(F)F)c4c3C(F)(F)[C@@H]3C[C@H]43)ccc(Cl)c12)S(C)(=O)=O [Compound 20] in terms of pH 7 solubility is 2

GET /value?item= CC(C)(C#Cc1ccc(-c2ccc(Cl)c3c(N(C(=O)[C@H](CCC(=O)O)NC(=O)C(=O)O)S(C)(=O)=O)nn(CC(F)(F)F)c23)c([C@H](Cc2cc(F)cc(F)c2)NC(=O)Cn2nc(C(F)(F)F)c3c2C(F)(F)[C@@H]2C[C@H]32)n1)S(C)(=O)=O [Compound 24] &field=pH 7 solubility returns 14

Entry under test: CC(C)(C#Cc1ccc(-c2ccc(Cl)c3c(N(C(=O)C[N+](C)(C)C)S(C)(=O)=O)nn(CC(F)(F)F)c23)c([C@H](Cc2cc(F)cc(F)c2)NC(=O)Cn2nc(C(F)(F)F)c3c2C(F)(F)[C@@H]2C[C@H]32)n1)S(C)(=O)=O [Compound 5] . Its pH 7 solubility was 6

The compound listed as CN(C(=O)N(c1nn(CC(F)(F)F)c2c(-c3ccc(C#CC(C)(C)S(C)(=O)=O)nc3[C@H](Cc3cc(F)cc(F)c3)NC(=O)Cn3nc(C(F)(F)F)c4c3C(F)(F)[C@@H]3C[C@H]43)ccc(Cl)c12)S(C)(=O)=O)c1ncccc1CN(CC(=O)O)C(=O)OCOP(=O)(O)O [Compound 52] has a reported pH 7 solubility of 100

Per the record, CN(CC(=O)N(c1nn(CC(F)(F)F)c2c(-c3ccc(C#CC(C)(C)S(C)(=O)=O)nc3[C@H](Cc3cc(F)cc(F)c3)NC(=O)Cn3nc(C(F)(F)F)c4c3C(F)(F)[C@@H]3C[C@H]43)ccc(Cl)c12)S(C)(=O)=O)C(=O)OCOP(=O)(O)O [Compound 37] has pH 7 solubility of 79

Summary for this compound, CN(CCCC(=O)N(c1nn(CC(F)(F)F)c2c(-c3ccc(C#CC(C)(C)S(C)(=O)=O)nc3[C@H](Cc3cc(F)cc(F)c3)NC(=O)Cn3nc(C(F)(F)F)c4c3C(F)(F)[C@@H]3C[C@H]43)ccc(Cl)c12)S(C)(=O)=O)C(=O)OCOP(=O)(O)O [Compound 32] : pH 7 solubility is 100
